Origin of measurements: ChEMBL document CHEMBL1201862

Assay target: Zinc finger protein mex-5 (Caenorhabditis elegans)
Sequence (Q9XUB2 whole entry): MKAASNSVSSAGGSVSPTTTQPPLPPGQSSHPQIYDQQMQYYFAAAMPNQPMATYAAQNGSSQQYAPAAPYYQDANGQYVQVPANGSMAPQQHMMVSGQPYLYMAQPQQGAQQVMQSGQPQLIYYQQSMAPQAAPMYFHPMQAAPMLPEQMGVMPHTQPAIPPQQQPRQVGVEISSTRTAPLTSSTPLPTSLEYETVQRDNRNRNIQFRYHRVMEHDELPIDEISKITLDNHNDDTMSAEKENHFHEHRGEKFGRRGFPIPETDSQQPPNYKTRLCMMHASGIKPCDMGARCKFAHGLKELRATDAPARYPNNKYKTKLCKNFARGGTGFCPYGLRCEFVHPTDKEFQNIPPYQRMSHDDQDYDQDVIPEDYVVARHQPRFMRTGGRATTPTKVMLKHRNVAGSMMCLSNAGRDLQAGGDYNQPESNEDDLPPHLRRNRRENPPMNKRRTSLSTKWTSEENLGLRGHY
Assay comment: potency of MEX-5 RNA-binding blockers – biochemical, C. elegans, fluorescence polarization, dose response (AID 1960)
Active and inactive are the calls of the source. Rule as the data show it: actives have a measured EC50 and inactives only a lower limit.
Measured property: EC50

COC(=O)CCC(=O)OC1(C)C(=O)C2=CN(CCc3ccccn3)C(c3ccc(OC)cc3)=CC2=C(Br)C1=O (stereo not given) ... 8.83 µM (active)
Cc1ccc2nc(O)c(CN(CCO)Cc3nnnn3CCc3ccccc3)cc2c1 ... > 300 µM (not active)
Cc1ccc(/C=C2/Sc3ccc(C(=O)N4CCC5(CC4)OCCO5)cc3NC2=O)cc1 ... 8.06 µM (inconclusive)

Q: Which value of EC50 has been reported for "CC(C)N1CCc2c(sc(NC(=O)c3ccc4ccccc4c3)c2C(N)=O)C1" in the records?
Result: > 300 µM (inconclusive)

Q: Then "c1ccc2nc3cc4[nH]cnc4cc3nc2c1" ?
Result: 1.74 µM (inconclusive)
